Tested on: α-L-rhamnosidase from Penicillium sp. DSM 6826
Assay: Influence of different substances on the activity of the purified α-L-rhamnosidase
Assay type: biochemical
Conditions: substance at 2 mM; control = 100
Is % activity at least 40%? Then True. If not, False.

Solved entries (count: 3):
In: Hello, I need to know if `O=S(=O)([O-])[O-].[Mg+2]` has measured % activity not below 40%. Thanks!
Out: True

In: Is the recorded value of % activity equal to or greater than 40% for this compound? `[Cl-].[Cs+]`
Out: True

In: Record `[Cl-].[Cl-].[Zn+2]` ; criterion: % activity no lower than 40%. Met?
Out: True

Please turn your attention to the following entry.
In: Is reported % activity greater than or equal to 40% here: `[Cl][Mn][Cl]`
Out: False

Data provenance is patent US5641659A.
